Can you tell me Ki for the items I'm about to list?
target: Muscarinic acetylcholine receptor; assay: Receptor binding affinity (Ki) against Muscarinic acetylcholine receptor (cerebral cortex) was determined by competition radioligand -[3H]- QNB binding assay; format: tissue-based, Cavia porcellus
API: value field is a number in nM; no unit string.

Enquiry: Which Ki is listed for Brc1ccc2oc(C3=CN4CCC3CC4)cc2c1 ?
Return: 39

Enquiry: I am curious: what Ki value has been reported for Cc1c(C2=CN3CCC2CC3)oc2ccccc12 ?
Return: 25.3

Enquiry: Entry under review: O=Cc1cc(I)c2oc(C3=CN4CCC3CC4)cc2c1 . Reported Ki?
Return: 221

Enquiry: Field request: Ki | item: C1=C(c2cc3cc(-c4ccccc4)ccc3o2)C2CCN1CC2
Return: 289

Enquiry: Fill blank: measured Ki of the molecule C1=C(c2oc3ccccc3c2-c2ccccc2)C2CCN1CC2 is ____.
Return: 20

Enquiry: Look at this molecule and give its reported Ki. Cc1cccc2cc(C3=CN4CCC3CC4)oc12
Return: 25

Enquiry: I have this molecule here, Brc1cccc2cc(C3=CN4CCC3CC4)oc12 , and I need its recorded Ki.
Return: 15

Enquiry: Given the molecule O=Cc1ccc2oc(C3=CN4CCC3CC4)cc2c1 , what is its reported Ki?
Return: 364

Enquiry: Endpoint output: Ki of Cc1ccc2oc(C3=CN4CCC3CC4)cc2c1 . Value?
Return: 116
